molecular target: Aldo-keto reductase family 1 member B1 (Sus scrofa); assay: In vitro percent inhibition of porcine lens aldose reductase (AR) at 10e -7 M with DL-glyceraldehyde as the substrate
MEASUREMENT TYPE: inhibition (%)

- O=C(O)CCCc1nc2c(F)c(F)cc(F)c2s1: 1
- O=C(O)CCCCCc1nc2c(F)c(F)cc(F)c2s1: 71
- O=C(O)CCCCCCc1nc2c(F)c(F)cc(F)c2s1: 11
- O=C(O)CCCCc1nc2c(F)c(F)cc(F)c2s1: 35

====

target: Aldo-keto reductase family 1 member B1 (Sus scrofa, UniProt P80276)
pIC50: −log10 of the molar value.
The following compounds are shown together with reported pIC50 values.
MEASUREMENT TYPE: pIC50

- O=C(O)Cn1c(=O)n(Cc2ccc(Br)cc2F)c(=O)c2ccc(Cl)cc21 [ZENARESTAT]: 7.92
- O=C(O)Cc1cccc(Cc2nc3c(F)c(F)cc(F)c3s2)c1Cl: 8.03
- COc1ccc2c(C(=S)N(C)CC(=O)O)cccc2c1C(F)(F)F [TOLRESTAT]: 7.80
- CN(C)c1cc(CC(=O)O)cc(Cc2nc3c(F)c(F)cc(F)c3s2)c1.Cl: 7.92
- O=C(O)CCCCCc1nc2c(F)c(F)cc(F)c2s1: 7.30

====

test system: Rattus norvegicus; test: Inhibition of sorbitol accumulation in the lens in diabetic rats at peroral dose of 30 mg/kg (curative effect); format: functional; conditions: Lens of camera-type eye, route oral
The following compounds are shown together with reported ED50 values.
MEASUREMENT TYPE: ED50

• O=C(O)Cc1cc(I)cc(Cc2nc3c(F)c(F)cc(F)c3s2)c1 = > 10 mg/kg
• Cc1cc(CC(=O)O)cc(Cc2nc3c(F)c(F)cc(F)c3s2)c1 = 1.6 mg/kg
• O=C(O)Cc1cc(Cl)cc(Cc2nc3c(F)c(F)cc(F)c3s2)c1 = 7.8 mg/kg
• O=C(O)Cc1cc(F)cc(Cc2nc3c(F)c(F)cc(F)c3s2)c1 = 10 mg/kg
• O=C(O)Cc1cccc(Cc2nc3c(F)c(F)cc(F)c3s2)c1Cl = 0.71 mg/kg
• CN(C)c1cc(CC(=O)O)cc(Cc2nc3c(F)c(F)cc(F)c3s2)c1.Cl = > 10 mg/kg
• O=C(O)Cc1cc(Cc2nc3c(F)c(F)cc(F)c3s2)cc(C(=O)O)c1 = > 10 mg/kg
• O=C(O)Cc1cc(Br)cc(Cc2nc3c(F)c(F)cc(F)c3s2)c1 = 9.8 mg/kg
• O=C(O)Cc1cccc(Cc2nc3c(F)c(F)cc(F)c3s2)c1 = > 10 mg/kg
• O=C(O)CC1Sc2ccccc2N(Cc2nc3c(F)c(F)cc(F)c3s2)C1=O (stereo not given) = > 10 mg/kg
